system tested: PD-1/PD-L1 (Homo sapiens, UniProt Q9NZQ7)
Sequence (Q9NZQ7 19-238 limits assumed): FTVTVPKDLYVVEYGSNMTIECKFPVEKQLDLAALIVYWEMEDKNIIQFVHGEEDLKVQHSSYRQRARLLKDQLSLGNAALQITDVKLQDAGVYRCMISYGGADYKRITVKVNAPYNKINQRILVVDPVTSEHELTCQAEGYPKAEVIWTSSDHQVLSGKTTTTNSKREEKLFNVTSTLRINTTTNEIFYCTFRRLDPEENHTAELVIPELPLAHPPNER
assay method text: PD-1/PD-L1 biochemical protein-protein interaction assay (ALPHA)
condition summary: 0.3 nM His tagged PD-L1, 2.5 nM biotinylated Fc-PD-1, 60 minutes at 25° C., read-out: IC50 PD-L1-PD-1 Alpha IC50-mono PD-L1-fcP-D1
Overview of recorded IC50 for various compounds
Report as a plain number; the unit nM is understood.

Asked: Any idea what IC50 was measured for Cc1c(COc2cc(OCc3cncc(C#N)c3)c(CNC[C@@H](O)CC(=O)O)cc2Cl)cccc1-c1cccc(-c2cc3c(cc2F)C(N(C)C)CC3)c1C (stereo partly drawn) [Example 372] ?
Given back: 1.13

Asked: Then Cc1c(COc2cc(OCc3cncc(C#N)c3)c(CN[C@@](C)(CO)C(=O)O)cc2Cl)cccc1-c1cccc(-c2cccc([C@@H](C)N)c2)c1C [Example 498] ?
Given back: 0.115

Asked: Then CC(=O)NCCNCc1ccc(OCc2cccc(-c3cccc(COc4ccc(CNCCNC(C)=O)c(-c5cncc(C#N)c5)c4)c3C)c2C)cc1-c1cncc(C#N)c1 [Example 250] ?
Given back: 63.6

Asked: Then Cc1c(COc2cc(OCc3cncc(C#N)c3)c(CNC[C@@H](O)CC(=O)O)cc2Br)cccc1-c1cccc(COc2cc(OCc3cncc(C#N)c3)c(CNC[C@@H](O)CC(=O)O)cc2Br)c1C [Example 33] ?
Given back: 0.4

Asked: Then CCOc1nc(OCc2cccc(-c3cccc(COc4ccc(CNCCO)c(OCC)n4)c3C)c2C)ccc1CNCCO [Example 271] ?
Given back: 56

Asked: Then CCCc1cc(CNCCO)c(OCc2cncc(C#N)c2)cc1OCc1cccc(-c2cccc(COc3cc(OCc4cncc(C#N)c4)c(CNCCO)cc3CCC)c2C)c1C [Example 39] ?
Given back: 167

Asked: Then COc1nc(OCc2cccc(-c3cccc(COc4ccc(CNCCO)c(OC)n4)c3C)c2C)ccc1CNCCO [Example 21] ?
Given back: 17

Asked: Then C=Cc1cc(CNC[C@@H](O)CC(=O)O)c(OC)nc1OCc1cccc(-c2cccc(COc3nc(OC)c(CNC[C@@H](O)CC(=O)O)cc3C=C)c2C)c1C [Example 120] ?
Given back: 2

Asked: Then COc1nc(OCc2cccc(-c3cccc(COc4nc(OC)c(CNCC(=O)O)cc4Cl)c3C)c2C)c(Cl)cc1CNCC(=O)O [Example 178] ?
Given back: 0.2

Asked: Then COc1nc(-c2cccc(-c3cccc4c3CC[C@@H]4Oc3nc(OC)c(CN4CC[C@H](C(=O)O)C4)cc3Cl)c2Cl)ccc1CN1CC(C)(O)C1 [Example 706] ?
Given back: 0.064

Asked: Then COc1nc(OCc2cccc(-c3cccc(-c4ccc5c(c4)C[C@@H](N)C5)c3Cl)c2Cl)c(Br)cc1CN[C@](C)(CO)C(=O)O [Example 549] ?
Given back: 0.355

Asked: Then Cc1c(COc2cc(OCc3nc4ccccc4[nH]3)c(CNC[C@@H](O)CC(=O)O)cc2Cl)cccc1-c1cccc(COc2cc(OCc3nc4ccccc4[nH]3)c(CNC[C@@H](O)CC(=O)O)cc2Cl)c1C [Example 273] ?
Given back: 200
